Test system: Plasmodium berghei
Test: Antimalarial activity against sporozoite stage of Plasmodium berghei infected in human HepG2 cells reduction in parasite level
Format: functional, organism-based
Measured pIC50, listed per entry.
Quick note: pIC50 means taking -log10 of the concentration in moles per liter.

Use the examples below as a reference point.
1) C=CC(=O)Nc1ccc(N2CCN(C)CC2)nc1OC
4.06
2) C=CC(=O)N1CCN(c2nc(C)nc3c2cnn3C)CC1
5.19
3) C=CC(=O)Nc1ccc2ccn(CCN(C)C)c2c1
4.31

Okay, now this compound:
Please fill in: pIC50 reported for "C=CC(=O)NCc1cc(C(F)(F)F)ccc1N1CCN(C)CC1" = 4.10
